# Test system: HCT-15 colon
# assay-overview: NCI tumour cell line growth inhibition, 48 h; in the data active = GI50 below about 0.43 µM; inactive = the rest
Valid outcomes are listed here; reply with one: active, inactive

>>> label("O=C(O)CN1CCN(CC(=O)O)CC(=O)[O][Hg][O]C(=O)C1")
"inactive"
>>> label("O=C(OCc1ccc2ccccc2n1)c1cn(C2CC2)c2cc(N3CCN(Cc4ccc5ccccc5n4)CC3)c(F)cc2c1=O")
"inactive"
>>> label("O=c1[nH]c(=O)n(C2CC(O)C(COP(=O)(OCc3ccc([N+](=O)[O-])o3)N(CCCCCl)CC(O)CO)O2)cc1F (stereo unspecified)")
"inactive"
>>> label("O=S(=O)(c1ccc(Cl)cc1)C(Cl)(Cl)Cl")
"inactive"
>>> label("O=C(/C=C\\c1cccc([N+](=O)[O-])c1)/C=C/c1cccc([N+](=O)[O-])c1")
"inactive"

Name the outcome recorded for N#CC1(C(N)=O)C(c2ccc(Cl)cc2)CC(=O)CC1c1ccc(Cl)cc1 (stereo unspecified) in the assay.
inactive

Name the outcome recorded for `CC(=O)/C=C/c1cn(C(=O)OC(C)(C)C)c2ccc(Br)cc12` in the assay.
inactive

Name the outcome recorded for `COc1cc2nc(N3CCCC3)nc(NCCc3ccccc3)c2cc1OC` in the assay.
inactive

Name the outcome recorded for `O=C1c2c(c3c4ccccc4[nH]c3c3ccc4ccccc4c23)C(=O)N1CCN1CCNCC1` in the assay.
inactive

Name the outcome recorded for `CCCCCCCCCCCCCCCCCC[n+]1ccc2c(C)c3c(c(C)c2c1)c1cc(O)ccc1n3CC` in the assay.
inactive

Name the outcome recorded for `O=[N+]([O-])c1ccc(C=Cc2ccccc2)cc1.[C-]#[O+].[C-]#[O+].[C-]#[O+].[Cr]` in the assay.
inactive

Name the outcome recorded for COc1cc(N2C(=O)[C@H](O)C2c2ccc(SC)cc2)cc(OC)c1OC (stereo partly specified) in the assay.
active

Name the outcome recorded for `O=S(=O)(Nc1cc(Sc2cccc3cccnc23)c(O)c2ccccc12)c1ccc(F)cc1` in the assay.
inactive

Name the outcome recorded for CC(=O)OC12C=C(C)C(C(C)C1)C1C(=O)N(CCN3CCOCC3)C(=O)C12 (stereo unspecified) in the assay.
inactive

Name the outcome recorded for O=C1OCC2=C1C(c1ccccc1)c1cc3c(cc1N2)OCO3 (stereo unspecified) in the assay.
active

Name the outcome recorded for `Fc1ccc(/C=N/n2c(-c3ccc(F)c(Cl)c3)nn(CNc3ccccc3C(F)(F)F)c2=S)cc1` in the assay.
inactive

* * *

# Tested on: NCI-H460 lung
# assay-overview: NCI tumour cell line growth inhibition, 48 h
Listed here are compounds together with their documented TGI.

Take a look at these entries with their results.
>>> reading("CN(C)c1ccc(NN=C2SC(=Nc3ccccc3)C(=Nc3ccccc3)S2)cc1")
"> 100 µM"
>>> reading("Nc1ccn(C2C=C(CO)C(O)C2O)c(=O)c1 (configuration not stated)")
"> 625 µM"
>>> reading("CN(N=O)C(=O)ON1C(=O)CCC1=O")
"> 100 µM"
>>> reading("O=S(=O)(Nc1cc(Sc2cccc3cccnc23)c(O)c2ccccc12)c1ccc(F)cc1")
"11 µM"

Give a short answer stating reported TGI for `O=C(/C=C\c1cccc([N+](=O)[O-])c1)/C=C/c1cccc([N+](=O)[O-])c1` .
> 100 µM

Give a short answer stating reported TGI for `O=c1[nH]cc(COCCCO)c(=O)[nH]1` .
> 100 µM
